// provenance: ChEMBL document CHEMBL5380795

system: Staphylococcus epidermidis; experiment: Antibacterial activity against methicillin resistant Staphylococcus epidermidis clinical isolate 19-5 assessed as inhibition of bacterial growth incubated for 18 to 24 hrs by broth microdilution method; format: functional; settings: time 18-24 hrs
Bridge positions count the residues as written; N and C are the ends. Square brackets hold non-standard residues; d marks the D form. Peptide text beside a SMILES is read from it. * marks the point of attachment. Decanoyl(3R-OH) = CCCCCCC[C@@H](O)CC(=O)*; dDab = NCC[C@@H](N)C(=O)O; Dab = NCC[C@H](N)C(=O)O
Property: MIC; scope: individual compounds
Write it as a number; the unit µg/mL goes unstated.

Please review the following examples before continuing.
COMPOUND: CCCCCCC[C@@H](O)CC(=O)N[C@@H](CCN)C(=O)N[C@H](CCN)C(=O)N[C@H]1CCNC(=O)[C@H](CC(C)C)NC(=O)[C@H](CCN)NC(=O)[C@H](CCN)NC(=O)[C@H](Cc2ccccc2)NC(=O)[C@@H](CC(C)C)NC(=O)[C@H](CCN)NC1=O
MIC / µg/mL: 1
//
COMPOUND: C[C@@H](O)[C@H]1C(=O)N2C(C(=O)O)=C(S[C@@H]3CN[C@H](C(=O)N(C)C)C3)[C@H](C)[C@H]12 [MEROPENEM]
MIC / µg/mL: 2
//
COMPOUND: CCCCCCCCCC(=O)N[C@H](CCN)C(=O)N[C@H]1CCNC(=O)[C@H]([C@@H](C)O)NC(=O)[C@H](CCN)NC(=O)[C@H](CCN)NC(=O)[C@H](CC(C)C)NC(=O)[C@@H](CC(C)C)NC(=O)[C@H](CCCN)NC1=O
MIC / µg/mL: 4

Shifting focus to the compound that follows.
Inquiry: Would you mind telling me what MIC value was observed for CCCCCCC[C@@H](O)CC(=O)N[C@H](CCN)C(=O)N[C@H]1CCNC(=O)[C@H]([C@@H](C)O)NC(=O)[C@H](CCN)NC(=O)[C@H](CCN)NC(=O)[C@H](CC(C)C)NC(=O)[C@@H](Cc2ccccc2)NC(=O)[C@H](CCN)NC1=O ({Decanoyl(3R-OH)}-[dDab][Dab][Dab][dF]L[Dab][Dab]T; lactam 2-C) ?
Reply text: 8

----------
Catalogue of MIC values
tested on: Escherichia coli; test: Antibacterial activity against KPC producing Escherichia coli ATCC BAA-2340 assessed as inhibition of bacterial growth incubated for 18 to 24 hrs by broth microdilution method; format: functional; conditions: time 18-24 hrs

Inquiry: Find the recorded MIC belonging to CCCCCCCCCC(=O)N[C@H](CCN)C(=O)N[C@H]1CCNC(=O)[C@H](CC(C)C)NC(=O)[C@H](CCN)NC(=O)[C@H](CCN)NC(=O)[C@H](CC(C)C)NC(=O)[C@@H](CC(C)C)NC(=O)[C@H](CCN)NC1=O and report it.
Reply text: 4 µg/mL

Inquiry: Next: CCCCCCC[C@@H](O)CC(=O)N[C@H](CCN)C(=O)N[C@H]1CCNC(=O)[C@H]([C@@H](C)O)NC(=O)[C@H](CCN)NC(=O)[C@H](CCN)NC(=O)[C@H]([C@@H](C)O)NC(=O)[C@@H](Cc2ccccc2)NC(=O)[C@H](CCN)NC1=O
Reply text: 1 µg/mL

Inquiry: Next molecule up: CCCCCCCCCC(=O)N[C@H](CCN)C(=O)N[C@H]1CCNC(=O)[C@H](CC(=O)O)NC(=O)[C@H](CCN)NC(=O)[C@H](CCN)NC(=O)[C@H](CC(C)C)NC(=O)[C@@H](CC(C)C)NC(=O)[C@H](CCN)NC1=O
Reply text: > 64 µg/mL
